B1: F1*; the commonest letter at each place (parent)
chain: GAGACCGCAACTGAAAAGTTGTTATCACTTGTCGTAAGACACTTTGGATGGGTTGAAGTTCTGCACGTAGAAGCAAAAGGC

# Variants of: B1
# test method notes: fraction ligated after 30 min (ligated reads / total reads); higher = more ligase activity
# condition summary: with F1*sub RNA substrate (template-directed ligation), 42 °C
Recorded fraction ligated by entry

{"seq text": "GAGACCGCAACTGAAAAGTTGTTATCACTTGTCGTAAGACACCCTGGATGGGTTGAAGTTCTGCACGTAGAAGCAAAAGGC", "fraction ligated": 0.781}
{"seq text": "GAGACCGCAACTGAAAAGTTGTTATCACTGGTCGTAAGACACTTTGGATGGGTTCAAGTTCTGCACGTAGAAGCAAAAGGC", "fraction ligated": 0.793}
{"seq text": "GAGACCGCAACTGAAAAGTTGTTATCACTTGTCGTAGGACCCTTTGGATGGGTTGAAGTTCTGCACGTAGAAGCAAAAGGC", "fraction ligated": 0.787}
{"seq text": "GAGACCGCAACTGAAAAGTTGTTATCACTCGTCGTAAGACACTTTGAATGGGTTGAAGTTCTGCACGTAGAAGCAAAAGGC", "fraction ligated": 0.798}
{"seq text": "GAGACCGCAACTGAAAAGTTGTTATCACATGTCGAAAGACACTTTGGATGGGTTGAAGTTCTGCACGTAGAAGCAAAAGGC", "fraction ligated": 0.821}
{"seq text": "GAGACCGCAACTGAAAAGTTGTTATCACTTGTCGTAAGTCACTTTAGATGGGTTGAAGTTCTGCACGTAGAAGCAAAAGGC", "fraction ligated": 0.805}
{"seq text": "GAGACCGCAACTGAAAAGTTGTTATCACTTGTCCTAATACACTTTGGATGGGTTGAAGTTCTGCACGTAGAAGCAAAAGGC", "fraction ligated": 0.811}
{"seq text": "GAGACCGCAACTGAAAAGTTGTTATCACTAGTCGTAAGACACTTTGGATGGGTTGATGTTCTGCACGTAGAAGCAAAAGGC", "fraction ligated": 0.8}
{"seq text": "GAGACCGCAACTGAAAAGTTGTTATCGATTGTCGTAAGACACTTTGGATGGGTTGAAGTTCTGCACGTAGAAGCAAAAGGC", "fraction ligated": 0.805}
{"seq text": "GAGACCGCAACTGAAAAGTTGTTATCACTTGTCGTAAGGCACTTCGGATGGGTTGAAGTTCTGCACGTAGAAGCAAAAGGC", "fraction ligated": 0.792}
{"seq text": "GAGACCGCAACTGAAAAGTTGTTATCAATTGTCGTAAAACACTTTGGATGGGTTGAAGTTCTGCACGTAGAAGCAAAAGGC", "fraction ligated": 0.789}
{"seq text": "GAGACCGCAACTGAAAAGTTGTTATCACTTGTCGCAAGACACTTTGGATGGGTTGAGGTTCTGCACGTAGAAGCAAAAGGC", "fraction ligated": 0.822}
{"seq text": "GAGACCGCAACTGAAAAGTTGTTATTACTTGTCGTAAGACACTTAGGATGGGTTGAAGTTCTGCACGTAGAAGCAAAAGGC", "fraction ligated": 0.779}
{"seq text": "GAGACCGCAACTGAAAAGTTGTTATCACTTGTCGTAACACACTTTAGATGGGTTGAAGTTCTGCACGTAGAAGCAAAAGGC", "fraction ligated": 0.791}
{"seq text": "GAGACCGCAACTGAAAAGTTGTTATCATTTGTCGTATGACACTTTGGATGGGTTGAAGTTCTGCACGTAGAAGCAAAAGGC", "fraction ligated": 0.81}
{"seq text": "GAGACCGCAACTGAAAAGTTGTTATCACTTGCGGTAAGACACTTTGGATGGGTTGAAGTTCTGCACGTAGAAGCAAAAGGC", "fraction ligated": 0.797}
{"seq text": "GAGACCGCAACTGAAAAGTTGTTATCACTTGTCGTATGACACTTTAGATGGGTTGAAGTTCTGCACGTAGAAGCAAAAGGC", "fraction ligated": 0.807}
